molecular target: Plasminogen (Homo sapiens, UniProt P00747)
Sequence (P00747 97-580 limits assumed): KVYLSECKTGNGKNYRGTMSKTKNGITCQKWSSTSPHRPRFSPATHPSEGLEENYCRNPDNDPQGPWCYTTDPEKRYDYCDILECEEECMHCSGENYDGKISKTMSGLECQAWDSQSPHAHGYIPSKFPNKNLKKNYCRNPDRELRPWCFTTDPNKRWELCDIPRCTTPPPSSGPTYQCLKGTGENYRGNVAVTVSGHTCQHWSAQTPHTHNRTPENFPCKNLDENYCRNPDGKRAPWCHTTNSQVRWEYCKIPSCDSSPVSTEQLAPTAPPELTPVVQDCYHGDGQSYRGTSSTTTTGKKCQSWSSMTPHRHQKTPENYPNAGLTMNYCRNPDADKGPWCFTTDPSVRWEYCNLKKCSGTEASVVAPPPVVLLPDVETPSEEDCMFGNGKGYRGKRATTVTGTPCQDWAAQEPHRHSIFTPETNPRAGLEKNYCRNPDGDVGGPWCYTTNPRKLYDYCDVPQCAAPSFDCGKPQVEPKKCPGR
Sequence (P00747 581-810 limits assumed): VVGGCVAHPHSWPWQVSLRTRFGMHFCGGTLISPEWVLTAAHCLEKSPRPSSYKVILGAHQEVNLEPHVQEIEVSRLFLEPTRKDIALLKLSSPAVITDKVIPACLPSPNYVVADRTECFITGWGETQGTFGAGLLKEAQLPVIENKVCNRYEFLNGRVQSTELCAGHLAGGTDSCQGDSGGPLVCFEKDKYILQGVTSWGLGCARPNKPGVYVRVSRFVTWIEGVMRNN
measured_endpoint: Ki

Input "CC(C)(C)[C@H](NC(=O)[C@H](CCONC(=N)N)NC(=O)Cc1ccc(CNC(=N)N)cc1)C(=O)N[C@@H](CCONC(=N)N)C(=O)NCc1ccc(C(=N)N)cc1" . Output Ki: > 3000 nM

* * *

biological target: Coagulation factor X (Homo sapiens, UniProt P00742)
Sequence (P00742 41-179 limits assumed): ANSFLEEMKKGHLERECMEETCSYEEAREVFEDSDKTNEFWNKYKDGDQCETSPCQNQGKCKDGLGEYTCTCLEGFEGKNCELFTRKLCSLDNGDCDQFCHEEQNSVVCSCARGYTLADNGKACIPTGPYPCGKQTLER
Sequence (P00742 235-488 limits assumed): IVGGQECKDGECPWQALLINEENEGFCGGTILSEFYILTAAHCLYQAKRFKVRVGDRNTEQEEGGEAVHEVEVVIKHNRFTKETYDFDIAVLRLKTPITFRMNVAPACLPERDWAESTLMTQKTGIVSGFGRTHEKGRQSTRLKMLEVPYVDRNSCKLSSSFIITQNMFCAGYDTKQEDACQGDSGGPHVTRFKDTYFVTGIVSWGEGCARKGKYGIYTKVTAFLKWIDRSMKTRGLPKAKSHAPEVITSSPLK
measured_endpoint: Ki

For this compound ( "CC(C)(C)[C@H](NC(=O)[C@H](CCONC(=N)N)NC(=O)Cc1ccc(CNC(=N)N)cc1)C(=O)N[C@@H](CCONC(=N)N)C(=O)NCc1ccc(C(=N)N)cc1" ), measured Ki is > 3 µM
